Target: human recombinant HDAC6 (Homo sapiens)
Construct: purchased Calbiochem 382180
Test: HDAC6 enzyme activity inhibition assay (HDAC Fluorimetric Drug Discovery Kit)
Type: biochemical
Settings: human recombinant HDAC6, same protocol as HDAC1; read-out: HDAC6
pIC50: −log10 of the molar value.
parameter.measured: pIC50

Use the examples below as a reference point.
INSERT INTO measurements (smiles_data, endpoint_result) VALUES
  ('COc1cccc(N(Cc2ccc(-c3nnc(C(F)F)o3)cn2)C(=O)N2CCN(C)CC2)c1', 7.36),
  ('CCN1CCN(C(=O)N(Cc2ccc(-c3nnc(C(F)(F)F)o3)cc2)c2ccc(OC)cc2)CC1', 6.51);

1 = CCN1CCN(C(=O)N(Cc2ccc(-c3nnc(C(F)F)o3)cc2F)c2ccc3cnn(C)c3c2)CC1
2 = Cn1ncc2ccc(N(Cc3ccc(-c4nnc(C(F)(F)F)o4)cc3F)C(=O)N3CCS(=O)(=O)CC3)cc21
query: Of 1 and 2 , whose reported pIC50 is the larger number? // caller expects the label of the chosen entry
result: 1
(1: 7.54, 2: 7.28)

* * *

Biological target: human recombinant HDAC6 (Homo sapiens)
Construct: purchased Calbiochem 382180
Test: HDAC6 enzyme activity inhibition assay (HDAC Fluorimetric Drug Discovery Kit)
Assay type: biochemical
Details: HDAC6 over HDAC1
parameter.measured: HDAC6 selectivity (fold)

INSERT INTO results (compound, parameter_measured, measurement_unit, endpoint_result) VALUES
  ('CC(C)(C)c1ccc(N(Cc2ccc(-c3nnc(C(F)F)o3)cc2F)C(=O)N2CCS(=O)(=O)CC2)cc1 [Compound 21461]', 'HDAC6 selectivity (fold)', 'fold', 14),
  ('Cn1ncc2c(N(Cc3ccc(-c4nnc(C(F)F)o4)cc3F)C(=O)N3CCS(=O)(=O)CC3)cccc21 [Compound 21710]', 'HDAC6 selectivity (fold)', 'fold', 2651),
  ('O=C(N1CCOCC1)N(Cc1ccc(-c2nnc(C(F)(F)F)o2)c(F)c1)c1ccccc1 [Compound 21319]', 'HDAC6 selectivity (fold)', 'fold', 52);

1 = O=C(N1CCOCC1)N(Cc1ccc(-c2nnc(C(F)(F)F)o2)nc1)c1ccccc1 [Compound 21333]
2 = Cc1cccc(N(Cc2ccc(-c3nnc(C(F)(F)F)o3)cc2F)C(=O)N2CCS(=O)(=O)CC2)c1 [Compound 21483]
query: Given the listed items, does 1 or 2 have the lesser reported HDAC6 selectivity (fold)? // caller expects the label of the chosen entry
result: 1
(1: 1 fold, 2: 141 fold)

* * *

Target: human recombinant HDAC6 (Homo sapiens, UniProt Q9UBN7)
Construct: purchased Calbiochem 382180
Sequence (Q9UBN7 whole entry): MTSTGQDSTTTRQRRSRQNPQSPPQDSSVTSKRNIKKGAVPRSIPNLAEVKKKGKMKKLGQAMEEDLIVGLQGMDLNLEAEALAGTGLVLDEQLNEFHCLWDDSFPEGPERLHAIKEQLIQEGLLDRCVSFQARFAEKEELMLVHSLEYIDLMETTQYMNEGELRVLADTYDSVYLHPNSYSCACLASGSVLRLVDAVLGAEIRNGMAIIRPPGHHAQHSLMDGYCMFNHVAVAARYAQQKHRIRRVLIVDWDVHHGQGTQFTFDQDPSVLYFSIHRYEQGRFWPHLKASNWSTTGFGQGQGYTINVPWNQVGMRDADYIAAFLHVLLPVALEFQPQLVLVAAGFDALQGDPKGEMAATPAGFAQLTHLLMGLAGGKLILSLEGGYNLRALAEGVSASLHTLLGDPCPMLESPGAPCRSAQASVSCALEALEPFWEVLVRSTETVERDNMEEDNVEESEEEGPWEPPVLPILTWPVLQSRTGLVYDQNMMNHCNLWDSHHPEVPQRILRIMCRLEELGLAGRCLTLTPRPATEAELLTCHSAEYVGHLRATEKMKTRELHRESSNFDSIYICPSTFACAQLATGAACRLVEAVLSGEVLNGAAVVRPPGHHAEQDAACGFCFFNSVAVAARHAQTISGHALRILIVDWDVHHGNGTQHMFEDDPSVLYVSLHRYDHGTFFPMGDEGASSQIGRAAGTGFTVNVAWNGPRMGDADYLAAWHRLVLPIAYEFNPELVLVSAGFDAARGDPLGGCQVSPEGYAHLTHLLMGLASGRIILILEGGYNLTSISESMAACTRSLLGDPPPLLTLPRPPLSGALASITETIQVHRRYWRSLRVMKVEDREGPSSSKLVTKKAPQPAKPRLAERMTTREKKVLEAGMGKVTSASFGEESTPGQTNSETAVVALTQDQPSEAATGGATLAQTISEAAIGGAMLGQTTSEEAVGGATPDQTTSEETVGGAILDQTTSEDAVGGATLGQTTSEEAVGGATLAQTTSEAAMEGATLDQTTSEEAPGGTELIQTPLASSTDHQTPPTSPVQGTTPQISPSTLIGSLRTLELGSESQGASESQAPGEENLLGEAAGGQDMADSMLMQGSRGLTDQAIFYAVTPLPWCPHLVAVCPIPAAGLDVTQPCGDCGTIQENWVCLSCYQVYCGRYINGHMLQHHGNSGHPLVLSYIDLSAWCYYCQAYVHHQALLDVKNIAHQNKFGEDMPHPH
Assay: HDAC6 enzyme activity inhibition assay (HDAC Fluorimetric Drug Discovery Kit)
Type: biochemical
Conditions: HDAC6 over HDAC1
parameter.measured: HDAC6 selectivity (fold)

Use the examples below as a reference point.
INSERT INTO measurements (smiles_data, measurement_unit, endpoint_result) VALUES
  ('O=C(N1CCOCC1)N(Cc1ccc(-c2nnc(C(F)F)o2)cc1)c1ccc(F)c(Cl)c1', 'fold', 494),
  ('COc1cc(-c2nnc(C(F)(F)F)o2)ccc1CN(C(=O)N1CCOCC1)c1ccccc1', 'fold', 1);

I = CCN1CCN(C(=O)N(Cc2ccc(-c3nnc(C(F)(F)F)o3)cc2F)c2ccc(OC)cc2)CC1
II = O=C(N1CCS(=O)(=O)CC1)N(Cc1ccc(-c2nnc(C(F)(F)F)o2)cc1)c1ccccc1C(F)(F)F
query: Given the listed items, does I or II have the lesser reported HDAC6 selectivity (fold)? // caller expects the label of the chosen entry
result: II

a = CN1CCN(C(=O)N(Cc2ccc(-c3nnc(C(F)F)o3)cc2F)c2ccc(-c3ccncc3)cc2)CC1
b = Cc1noc(C2CCN(CCNC(=O)N(Cc3ccc(-c4nnc(C(F)F)o4)cc3F)c3ccccc3)CC2)n1
query: Of a and b , whose reported HDAC6 selectivity (fold) is the larger number? // caller expects the label of the chosen entry
result: a
